These entries and their values trace back to patent US20160052996A1.

- testedSystem: T1, JCV VP1 VLP (JC virus (JCV), Mad-1 strain, UniProt P03089 1-354)
- T1 construct: also called JCV VP1 VLPs; JCV VP1 (coating with reassociation buffer)
- assay: direct ELISA, plate coated with antigen at 5 µg/ml in reassociation buffer (VLP); EC50 by non-linear regression (GraphPad Prism)
Item-by-item account of pEC50
Bear in mind: pEC50 is minus log10 of a mol/L concentration; give just that figure.

Guide cases for pEC50, answers given:
{"binder": "NI-307.98D3 (antibody, V domains shown) VH: EVQLVESGGGVVQPGRSLRLSCAASGFTFSSSAMHWVRQAPGKGLEWVAVISYDGNNQLYADSVKGRLTISRDNSKNALYLQLNSLRTEDTAVYFCARDGGGYSFGTYFFDFWGQGTLVTVSS VL: DIQMTQSPSSLSASVGERVTITCRASQRISNYLNWYQQKPGKAPKLLIYAASTLQSGVPSRFSGSGSGTDFTLTISSLQPEDFATYYCQQSYSSPPTFGPGTKVDIK", "pEC50": 12.24}
{"binder": "NI-307.105A6 (antibody, V domains shown) VH: EVQLVESGGGLVQPGRSLRLSCAASGFTFDDYAMHWVRQAPGKGLEWVSGITWNSGSIGYADSVKGRFTISRDNAKNSLYLQMNSLSAEDTALYYCAKGARDYLSYGMDVWGQGTTVTVSS VL: QSVVTQPPSVSGAPGQRVTISCTGSSSNIGAGYDVHWYQQLPGTAPKLLIFSNTIRPSGVPDRFSGSKSGTSASLAITGLQAEDEANYYCQSYDSSLSGSVFGGGTKLTVL", "pEC50": 10.16}
{"binder": "NI-307.53B11 (antibody, V domains shown) VH: EVQLVQSGAEVKKPGESLKISCKGSGYSFTSYWIGWVRQMPGKGLEWMGIIYPGDSDTRYSPSFQGQVTISADKSITTAYLQWSSLKASDTALYYCARRGSGSFSNYDFWGQGTLVTVSS VL: QSALTQPRSVSGSPGQSVTISCTGTSSDVGAYNYVSWYQQHPVKAPKLMIYDVSKRPSGVPDRFSGSRSGNTASLTISGLQADDEADYYCCSYAGTYTVLFGGGTKLTVL", "pEC50": 10.19}
{"binder": "NI-307.26A3 (antibody, V domains shown) VH: EVQLVESGGVLVQPGGSLRLSCAASGFTFSSYAMTWVRQAPEKGLEWVSTIIGNGAYTYYADSVKGRFTISRDNSKNTLILQMNSLRADDAAVYYCAKGTELAPYYYYFALDVWGQGTTVTVSS VL: EIVLTQSPGTLSLSPGERATLSCRASQSISSSHLAWYQQKPGQAPRLLIYGASSRATGIPDRFSGGGSGTDFTLTITRLEPEDFAVYYCQQYGSSPYTFGQGTKLEIK", "pEC50": 10.31}

# pEC50 lookup, item NI-307.27C2 (antibody, V domains shown) VH: EVQLVESGGGLVKPGGSLRLSCAASGFTFSSYTMNWVRQAPGKGLQWVSSISSSSTYMYYGDSVKGRFTISRDNARNSLYLQMNSLRVEDTAVYYCARYAHDWNVDYWGQGTLVTVSS VL: QSVLTQPPSASGTPGQRVTISCSGGSSNIGSNPVNWFQQFPGTAPKLLIYANTQRPSGVPDRFSGSKSGTSVSLAISGLQSEDEGDYHCAAWDDSLKGWVFGGGTKLTVL 10.28
